Attribution: patent US20240109881A1

Molecular target: IRAK4 (Homo sapiens)
Construct: endogenous in cells; host or cells: THP-1 cells
Assay: ALE THP1 HTRF (Advanced Lipoxidation End Product THP1 Homogeneous Time Resolved Fluorescence)
Format: cell-based
Settings: THP1 cells
So basically: is ALE THP1 HTRF YMIN under 10%? Then Satisfied. Not under? Then Not satisfied.

1. C[C@H](C#N)Nc1cc(-n2cc(F)c3cc(C#N)cnc32)ncc1C(=O)N[C@H]1CC[C@H](CCN2CCN(c3ccc(C4CCC(=O)NC4=O)cc3)CC2)CC1 (stereo partly drawn) [P-145] : Not satisfied
2. CNc1cc(-n2ncc3cc(C#N)cnc32)ncc1C(=O)NC1CCC(CCN2CCN(c3ccc(C4CCC(=O)NC4=O)cc3)CC2)CC1 (stereo not drawn) [P-86] : Not satisfied
3. N#Cc1cnc2c(cnn2-c2cc(NC3CCCC3)c(C(=O)N[C@H]3CC[C@H](CN4CCC(CCc5ccc(C6CCC(=O)NC6=O)cc5)CC4)CC3)cn2)c1 (stereo partly drawn) [P-43] : Not satisfied
4. CN(c1ccc2c(c1)C(=O)N(C1CCC(=O)NC1=O)C2=O)C1CCN(C[C@H]2CC[C@H](NC(=O)c3cnc(-n4ncc5cc(C#N)cnc54)cc3NC3CCCC3)CC2)CC1 (stereo partly drawn) [P-38] : Not satisfied

Query: ALE THP1 HTRF YMIN strictly < 10% for this compound? CC(Nc1cc(-n2ncc3cc(C#N)cnc32)ncc1C(=O)NC1CCC(CCN2CCN(c3ccc(C4CCC(=O)NC4=O)cc3)CC2)CC1)C(F)(F)F (stereo not drawn) [P-77]
Response: Not satisfied

Query: // next record N#Cc1cc2ccn(-c3cc(NC4CC4)c(C(=O)NC4CCC(CCN5CCN(c6ccc(C7CCC(=O)NC7=O)cc6)CC5)CC4)cn3)c2nc1F (stereo not drawn) [P-100]
Response: Not satisfied

Query: // next record COc1cc(C2CCC(=O)NC2=O)ccc1N1CCN(CC[C@H]2CC[C@H](NC(=O)c3cnc(-n4ncc5cc(C#N)c(N)nc54)cc3N[C@H](C)C#N)CC2)C[C@H]1C (stereo partly drawn) [P-167]
Response: Satisfied

Query: // next record C[C@H](C#N)Nc1cc(-n2ncc3cc(C#N)cnc32)ncc1C(=O)N[C@H]1CC[C@H](CCN2CC3CCC(C2)N3c2ccc(C3CCC(=O)NC3=O)cc2)CC1 (stereo partly drawn) [P-164]
Response: Not satisfied

Query: // next record O=C1CCC(N2C(=O)c3ccc(N4CCC(C(=O)NC5CCC(n6cc(-c7cnc(Nc8ccc9ncsc9c8)cc7NC7CCCC7)nn6)CC5)CC4)cc3C2=O)C(=O)N1 (stereo not drawn) [P-5]
Response: Not satisfied

Query: // next record N#Cc1cnc2c(cnn2-c2cc(NC3CCC3)c(C(=O)NC3CCC(CCN4CCN(c5ccc(C6CCC(=O)NC6=O)cc5)CC4)CC3)cn2)c1 (stereo not drawn) [P-82]
Response: Satisfied

Query: // next record N#Cc1cnc2c(cnn2-c2cc(NC3CCCC3)c(-c3cn([C@H]4CC[C@H](CN5CCN(CC(=O)Nc6ccc(C7CCC(=O)NC7=O)cc6)CC5)CC4)nn3)cn2)c1 (stereo partly drawn) [P-40]
Response: Not satisfied

Query: // next record N#Cc1cnn2c(-c3cc(NC4CC4)c(C(=O)N[C@H]4CC[C@H](CCN5CCN(c6ccc(C7CCC(=O)NC7=O)cc6)CC5)CC4)cn3)ccc2c1 (stereo partly drawn) [P-109]
Response: Not satisfied

----------
LVL THP1 HTRF YMIN: recorded values
Target: IRAK4 (Homo sapiens)
Construct: endogenous in cells; host or cells: THP-1 cells
Sequence (Q9NWZ3 1-460): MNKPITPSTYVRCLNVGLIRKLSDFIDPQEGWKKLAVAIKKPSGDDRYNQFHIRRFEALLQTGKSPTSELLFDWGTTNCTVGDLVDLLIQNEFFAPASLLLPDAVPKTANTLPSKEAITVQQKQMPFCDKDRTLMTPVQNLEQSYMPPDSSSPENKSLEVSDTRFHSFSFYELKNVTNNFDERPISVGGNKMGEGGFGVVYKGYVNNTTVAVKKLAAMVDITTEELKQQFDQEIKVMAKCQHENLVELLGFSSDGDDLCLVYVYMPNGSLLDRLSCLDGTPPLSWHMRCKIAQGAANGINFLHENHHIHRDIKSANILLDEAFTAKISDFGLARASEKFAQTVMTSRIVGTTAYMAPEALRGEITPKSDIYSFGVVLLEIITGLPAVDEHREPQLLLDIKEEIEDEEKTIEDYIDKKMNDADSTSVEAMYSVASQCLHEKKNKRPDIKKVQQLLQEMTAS
Assay: LVL THP1 HTRF (THP1 Homogeneous Time Resolved Fluorescence)
Assay type: cell-based
Conditions: THP1 cells, 18 h incubation with compound
Entry rule: numbers only, all in %.

Solved entries:
1) C[C@H](C#N)Nc1cc(-n2ncc3cc(C#N)cnc32)ncc1-n1cc([C@H]2CC[C@H](CCN3CCN(c4ccc(N5CCC(=O)NC5=O)cn4)[C@H](C)C3)CC2)nn1 [P-359] : −1.9
2) C[C@H](C#N)Nc1cc(-n2ncc3cc(C#N)cnc32)ncc1-n1cc([C@H]2CC[C@H](CCN3CC[C@H]4[C@@H]3CCN4c3ccc(N4CCC(=O)NC4=O)c(Cl)c3)CC2)nn1 (single isomer, unassigned) [P-464] : −7.1
3) C[C@H](C#N)Nc1cc(-n2ncc3cc(C#N)cnc32)ncc1-n1cc([C@H]2CC[C@H](CCN3CCN(c4ccc(C5(C)CCC(=O)NC5=O)cc4)CC3)CC2)nn1 (single isomer, unassigned) [P-204] : 1.8

Note: attention shifts to another entry.
Query: Value lookup for LVL THP1 HTRF YMIN; key = N#Cc1cnc2c(cnn2-c2cc(OC3CC3)c(-n3cc([C@H]4CC[C@H](CCN5CCN(c6ccc(C7CCC(=O)NC7=O)cc6)CC5)CC4)nn3)cn2)c1 (some centres unmarked) [P-409]
Response: 8.3

----------
Target: IRAK4 (Homo sapiens)
Construct: endogenous in cells; host or cells: THP-1 cells
Test: ALE THP1 HTRF (Advanced Lipoxidation End Product THP1 Homogeneous Time Resolved Fluorescence)
Assay type: cell-based
Details: THP1 cells
measured-property: ALE THP1 HTRF YMIN (%)
Entry rule: numbers only, all in %.

Solved entries:
1) CC(C)(C#N)Nc1cc(-n2ncc3cc(C#N)cnc32)ncc1C(=O)N[C@H]1CC[C@H](CCN2CCN(c3ccc(C4CCC(=O)NC4=O)cc3)CC2)CC1 (some centres unmarked) : 38.9
2) N#Cc1cnc2c(cnn2-c2cc(NC3CC3)c(C(=O)N[C@H]3CC[C@H](C(F)(F)CN4CCN(c5ccc(C6CCC(=O)NC6=O)cc5)CC4)CC3)cn2)c1 (some centres unmarked) : 16.0
3) N#Cc1cnc2c(cnn2-c2cc(NC3CC3)c(C(=O)N[C@H]3CC[C@H](C4C[C@@H]4N4CCN(c5ccc(C6CCC(=O)NC6=O)cc5)CC4)CC3)cn2)c1 (single isomer, unassigned) : 16.0
4) C[C@H](C#N)Nc1cc(-n2ncc3cc(C#N)cnc32)ncc1C(=O)N[C@H]1CC[C@H](CCN2CCN(c3ccc(C4CCC(=O)NC4=O)cc3)CC2)CC1 (some centres unmarked) [P-91] : 7.0

Query: Value lookup for ALE THP1 HTRF YMIN; key = C[C@H](C#N)Nc1cc(-n2ncc3cc(C#N)cnc32)ncc1C(=O)N[C@H]1CC[C@H](CCN2[C@@H]3C[C@H]2CN(c2ccc(C4CCC(=O)NC4=O)cc2)C3)CC1 (some centres unmarked)
Response: 27.9

----------
Biological target: IRAK4 (Homo sapiens)
Construct: endogenous in cells; host or cells: THP-1 cells
Test: LVL THP1 HTRF (THP1 Homogeneous Time Resolved Fluorescence)
Type: cell-based
Details: THP1 cells, 18 h incubation with compound
LVL THP1 HTRF YMIN: recorded values
Entry rule: numbers only, all in %.

1) C[C@H](C#N)Nc1cc(-n2ncc3cc(C#N)cnc32)ncc1-n1cc([C@H]2CC[C@H](CCN3CC[C@H]4[C@@H]3CCN4c3ccc([C@@]4(C)CCC(=O)NC4=O)nc3)CC2)nn1 (single isomer, unassigned) [P-415] : 37.5
2) C[C@H](C#N)Nc1cc(-n2ncc3cc(C#N)cnc32)ncc1-n1cc([C@H]2CC[C@H](CCN3CCC(n4ccc(C5CCC(=O)NC5=O)cc4=O)CC3)CC2)nn1 (some centres unmarked) : 3.7

Query: Value lookup for LVL THP1 HTRF YMIN; key = C[C@H](C#N)Nc1cc(-n2ncc3cc(C#N)cnc32)ncc1-n1cc([C@H]2CC[C@H](CCN3CCN(c4ccc(N5CCC(=O)NC5=O)c(F)c4)[C@H](C)C3)CC2)nn1
Response: −5.4

Query: // next record Cc1cc(N2CCC(=O)NC2=O)ccc1N1CCN(CC[C@H]2CC[C@H](c3cn(-c4cnc(-n5ncc6cc(C#N)cnc65)cc4N[C@H](C)C#N)nn3)CC2)CC1
Response: 4.5

Query: // next record Cc1cc(N2CCN(CC[C@H]3CC[C@H](NC(=O)c4cnc(-n5ncc6cc(C#N)c(N)nc65)cc4N[C@H](C)C#N)CC3)C[C@H]2C)ccc1C1CCC(=O)NC1=O (some centres unmarked) [P-171]
Response: 1.2

Query: // next record C[C@H](C#N)Nc1cc(-n2ncc3cc(C#N)cnc32)ncc1-n1cc([C@H]2CC[C@H](CCN3CCC(c4ccc(N5CCC(=O)NC5=O)c(Cl)c4)CC3)CC2)nn1
Response: 7.1

Query: // next record C[C@H](C#N)Nc1cc(-n2ncc3cc(C#N)c(N)nc32)ncc1C(=O)N[C@H]1CC[C@H](CCN2CCN(c3ccc(C4CCC(=O)NC4=O)cc3)C(C(F)(F)F)C2)CC1 (some centres unmarked) [P-186]
Response: 5.7

Query: // next record C[C@H](C#N)Nc1cc(-n2ncc3cc(C#N)c(N)nc32)ncc1-n1cc([C@H]2CC[C@H](CCN3CCN(c4ccc([C@@]5(C)CCC(=O)NC5=O)nc4)CC3)CC2)nn1 (single isomer, unassigned) [P-306]
Response: 1.5

Query: // next record C[C@H](C#N)Nc1cc(-n2ncc3cc(C#N)c(N)nc32)ncc1-n1cc(C2CCC(CCN3CCN(c4ccc([C@@]5(C)CCC(=O)NC5=O)cc4)CC3)CC2)nn1 (some centres unmarked)
Response: 2.1

Query: // next record C[C@H](C#N)Nc1cc(-n2ncc3cc(C#N)c(N)nc32)ncc1C(=O)N[C@H]1CC[C@H](CCN2CCN(c3ccc([C@@]4(C)CCC(=O)NC4=O)cc3)CC2)CC1
Response: 2.4

Query: // next record C[C@H](C#N)Nc1cc(-n2ncc3cc(C#N)cnc32)ncc1-n1cc([C@H]2CC[C@H](CCN3CC[C@H]4[C@@H]3CCN4c3ccc(N4CCC(=O)NC4=O)c(F)c3)CC2)nn1 (single isomer, unassigned) [P-461]
Response: 5.4
